Tested on: Human immunodeficiency virus 1
Experiment: Antiviral activity against lopinavir-resistant HIV1 NL4-3
Assay type: functional, organism-based
Settings: Human immunodeficiency virus 1, NL4-3
MEASURED_PARAMETER: EC50 (nM)
Respond with the bare value in nM.

Ask | Given COc1ccc(S(=O)(=O)N(C[C@H]2CCC(=O)N2)C[C@@H](O)[C@H](Cc2ccccc2)NC(=O)O[C@@H]2C[C@@H]3CCO[C@@H]3C2)cc1 , respond with its EC50.
Reply | 36

###

Test: Inhibition of HIV protease by fluorescence energy transfer assay
Parameters: species or system Human immunodeficiency virus
MEASURED_PARAMETER: pKi
The scale used: pKi is minus the common logarithm of the concentration in molar units.

Nc1ccc(S(=O)(=O)N(C[C@@H]2CCC(=O)N2)C[C@@H](O)[C@H](Cc2ccccc2)NC(=O)O[C@H]2CO[C@H]3OCC[C@H]32)cc1	9.55
Nc1ccc(S(=O)(=O)N(C[C@@H]2COC(=O)N2)C[C@@H](O)[C@H](Cc2ccccc2)NC(=O)O[C@H]2CO[C@H]3OCC[C@H]32)cc1	9.51
Nc1ccc(S(=O)(=O)N(C[C@H]2CCC(=O)N2)C[C@@H](O)[C@H](Cc2ccccc2)NC(=O)O[C@H]2CO[C@H]3OCC[C@H]32)cc1	9.07
COc1ccc(S(=O)(=O)N(C[C@H]2CCC(=O)N2)C[C@@H](O)[C@H](Cc2ccccc2)NC(=O)O[C@H]2CO[C@H]3OCC[C@H]32)cc1	9.92

Ask | Note down pKi recorded for COc1ccc(S(=O)(=O)N(C[C@@H]2COC(=O)N2)C[C@@H](O)[C@H](Cc2ccccc2)NC(=O)O[C@H]2CO[C@H]3OCC[C@H]32)cc1
Reply | 9.55

Ask | Give the reported pKi for this compound. Nc1ccc(S(=O)(=O)N(C[C@@H]2CCC(=O)N2)C[C@@H](O)[C@H](Cc2ccccc2)NC(=O)O[C@@H]2C[C@@H]3CCO[C@@H]3C2)cc1
Reply | 8.90

Where these numbers come from: ChEMBL document CHEMBL1136990
